- Type: in vitro ADME
- conditions: female, CD1, mouse, 0.5 μM, pH 7.4
measuredProperty: Microsomal Cli, mouse (mL/min/g)
Numbers only, in mL/min/g.

Answered examples (2):
smilesString: O=C(CSc1nc2c(c(=O)[nH]1)CCC2)NC1CCCCC1
unitsLabel: mL/min/g
reported: 1.2
//
smilesString: O=C(CCc1nc2ccccc2c(=O)[nH]1)NC1CCCCC1
unitsLabel: mL/min/g
reported: 1.6

Here are 2 molecules. What values of Microsomal Cli, mouse were reported for them?
1. O=C(CSc1nc2cnccc2c(=O)[nH]1)NC1CCC(F)(F)CC1
2. Cc1nc(SCC(=O)NC2CCCCC2)nc(O)c1C

Result:
1: 1.6; 2: 1.1
